Reported logD7.4 by item:
assay.protocol: Log D7.4 measurements (octanol/PBS partition)
Format: physicochemical
setup.conditions: Table 2; octanol/PBS pH 7.4
measured.property: logD7.4

INSERT INTO results (molecule, measured_property, measurement) VALUES
  ('COc1ccc(C2=[N+]3C(=Nc4c(-c5ccc(OCc6cn(C(COC7OC(CO)C(O)C(O)C7O)COC7OC(CO)C(O)C(O)C7O)nn6)cc5)cc(-c5ccc(OC)cc5)n4[B-]3(OC)OC)C(c3ccc(OCc4cn(C(COC5OC(CO)C(O)C(O)C5O)COC5OC(CO)C(O)C(O)C5O)nn4)cc3)=C2)cc1 (stereo not shown) [mvGlu-AB3]', 'logD7.4', '−0.71'),
  ('CO[B-]1(OC)n2c(-c3ccc(OCc4cn(C(COC5OC(CO)C(O)C(O)C5O)COC5OC(CO)C(O)C(O)C5O)nn4)cc3)cc(-c3ccccc3)c2N=C2C(c3ccccc3)=CC(c3ccc(OCc4cn(C(COC5OC(CO)C(O)C(O)C5O)COC5OC(CO)C(O)C(O)C5O)nn4)cc3)=[N+]21 (stereo not shown) [mvGlu-AB2]', 'logD7.4', '−1.12'),
  ('COc1ccc(-c2cc(-c3ccccc3)c3n2[B-](OC)(OC)[N+]2=C(c4ccc(OCc5cn(C(COC6OC(CO)C(O)C(O)C6O)COC6OC(CO)C(O)C(O)C6O)nn5)cc4)C=C(c4ccccc4)C2=N3)cc1 (stereo not shown) [mvGlu-AB1]', 'logD7.4', 0.75),
  ('COc1ccc(C2=[N+]3C(=Nc4c(-c5ccccc5)cc(-c5ccc(OC)cc5)n4[B-]3(F)F)C(c3ccccc3)=C2)cc1 [AB-OMe2, reference compound]', 'logD7.4', 2.51);
